Tested on: KU-812
Assay: cell viability (% survival relative to DMSO control, bortezomib = 0%); higher = less cytotoxic
Settings: 1 nM; 72 h

{"columns": ["compound", "unitName", "cell viability"],
 "data": [
  ["CC(C)(C)c1ccc(S(=O)(=O)NCc2ccc(C(=O)Nc3cccnc3)cc2)cc1", "%", 91.8],
  ["CO[C@H]1C[C@@H]2CC[C@@H](C)[C@@](O)(O2)C(=O)C(=O)N2CCCC[C@H]2C(=O)O[C@H]([C@H](C)C[C@@H]2CC[C@@H](OCCO)[C@H](OC)C2)CC(=O)[C@H](C)/C=C(\\C)[C@@H](O)[C@@H](OC)C(=O)[C@H](C)C[C@H](C)/C=C/C=C/C=C/1C", "%", 58.5],
  ["C=CCN(C)CCCCCCOc1ccc(C(=O)c2ccc(Br)cc2)c(F)c1.O=C(O)/C=C/C(=O)O [Ro 48-8071 fumarate]", "%", 90.2],
  ["CO[C@H]1C[C@@H]2CC[C@@H](C)[C@@](O)(O2)C(=O)C(=O)N2CCCC[C@H]2C(=O)O[C@H]([C@H](C)C[C@@H]2CC[C@@H](OC(=O)C(C)(CO)CO)[C@H](OC)C2)CC(=O)[C@H](C)/C=C(\\C)[C@@H](O)[C@@H](OC)C(=O)[C@H](C)C[C@H](C)/C=C/C=C/C=C/1C", "%", 71.8],
  ["CCN(CC)C(=S)SSC(=S)N(CC)CC", "%", 99.7],
  ["COC(=O)c1cc2c(C(F)(F)F)cc(-c3ccccc3)cc2n1O", "%", 97.6],
  ["OC[C@H]1NC[C@H](O)[C@@H](O)[C@@H]1O", "%", 84.9],
  ["O=c1cc(N2CCOCC2)oc2c(-c3ccccc3)cccc12", "%", 115],
  ["C=CC(=O)c1ccc(O)cc1", "%", 82.9],
  ["Cc1ccc(-c2cc(C(F)(F)F)nn2-c2ccc(S(N)(=O)=O)cc2)cc1", "%", 92.4],
  ["COc1ccc2c(NC(=O)Nc3cccc(C(F)(F)F)n3)ccnc2c1", "%", 116],
  ["N[C@@H](CC(=O)N1CCn2c(nnc2C(F)(F)F)C1)Cc1cc(F)c(F)cc1F", "%", 94.6],
  ["C[C@]12C=CC(=O)C=C1CC[C@@H]1[C@@H]2[C@@H](O)C[C@@]2(C)[C@H]1CC[C@]2(O)C(=O)CO", "%", 87.2],
  ["Cc1cc2c(C(C)C)c(O)c(O)c(C=O)c2c(O)c1-c1c(C)cc2c(C(C)C)c(O)c(O)c(C=O)c2c1O", "%", 95]
]}

###

Test system: myeloid leukemia patient primary cells Pat.8
Experiment: cell viability (% survival relative to DMSO control); higher = less cytotoxic
Details: 10000 nM; 72 h
Exam item: assign True to entries whose cell viability is below 80% and False to entries at or above 80%. Note that a value of exactly 80% receives False.

{"columns": ["molecule", "studySystem", "class"],
 "data": [
  ["Cn1cc(-c2ccncc2)c(-c2ccc(OCc3ccc4ccccc4n3)cc2)n1", "myeloid leukemia patient primary cells Pat.8", "False"],
  ["CO[C@H]1C[C@@H]2CC[C@@H](C)[C@@](O)(O2)C(=O)C(=O)N2CCCC[C@H]2C(=O)O[C@H]([C@H](C)C[C@@H]2CC[C@@H](OCCO)[C@H](OC)C2)CC(=O)[C@H](C)/C=C(\\C)[C@@H](O)[C@@H](OC)C(=O)[C@H](C)C[C@H](C)/C=C/C=C/C=C/1C [Everolimus]", "myeloid leukemia patient primary cells Pat.8", "True"],
  ["C=CCN(C)CCCCCCOc1ccc(C(=O)c2ccc(Br)cc2)c(F)c1.O=C(O)/C=C/C(=O)O [Ro 48-8071 fumarate]", "myeloid leukemia patient primary cells Pat.8", "True"],
  ["O=c1cc(N2CCOCC2)oc2c(-c3ccccc3)cccc12", "myeloid leukemia patient primary cells Pat.8", "True"],
  ["C[C@]12C=CC(=O)C=C1CC[C@@H]1[C@@H]2[C@@H](O)C[C@@]2(C)[C@H]1CC[C@]2(O)C(=O)CO [Prednisolone]", "myeloid leukemia patient primary cells Pat.8", "True"]
]}
